Organism: Homo sapiens
protocol_text: Selectivity index, ratio of IC50 for human recombinant MAO-B to IC50 for human recombinant MAO-A
value_kind: Ratio IC50
Enter a number only.

# count of solved cases: 4
N#Cc1cc2cc(-c3ccccc3)n(O)c2cc1C#N: 1.5
CC(=O)On1c(-c2cccs2)cc2cc(C#N)c(C#N)cc21: 0.93
COn1c(-c2cccs2)cc2cc3c(cc21)C(=O)NC3=O: 0.56
Cc1ccc(-c2cc3cc4c(cc3n2O)C(=O)NC4=O)cc1: 7

Query: // query Ratio IC50 value for entry "COn1c(-c2ccc(C)cc2)cc2cc3c(cc21)C(=O)NC3=O"
Response: 0.33

Query: Using the record for "O=C(O)c1cc2cc(-c3ccccc3)n(O)c2cc1C(=O)O" , report its Ratio IC50.
Response: 2.4
